Molecular target: T1, TNFR1 (Homo sapiens, UniProt P19438)
T1 chain: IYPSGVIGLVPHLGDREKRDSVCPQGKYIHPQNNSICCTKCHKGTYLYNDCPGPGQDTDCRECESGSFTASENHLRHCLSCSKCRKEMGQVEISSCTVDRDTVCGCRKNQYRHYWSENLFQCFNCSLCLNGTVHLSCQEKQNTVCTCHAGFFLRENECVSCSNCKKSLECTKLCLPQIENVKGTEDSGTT
Experiment: yeast display SC50
RECORDED ENDPOINT: apparent Kd (screen) (nM)
I only need the number, in nM, no unit after it.

Memo: L96K (designed binder) MTLQELLREEALRRAEAEAFRYALELLAEKFPEQKEYLLDLAEEIESQIRSLSGVDVEDVRKFLDKEWAWVKELLAEHPAELAEVEAARAARLAEKRAEVEAKVAA , reported apparent Kd (screen): 0.49

Memo: A102Q (designed binder) MTLQELLREEALRRAEAEAFRYALELLAEKFPEQKEYLLDLAEEIESQIRSLSGVDVEDVRKFLDKEWAWVKELLAEHPAELAEVEAARAARLAELRAEVEQKVAA , reported apparent Kd (screen): 0.539

Memo: S53D (designed binder) MTLQELLREEALRRAEAEAFRYALELLAEKFPEQKEYLLDLAEEIESQIRSLDGVDVEDVRKFLDKEWAWVKELLAEHPAELAEVEAARAARLAELRAEVEAKVAA , reported apparent Kd (screen): 8.56

Memo: L3W (designed binder) MTWQELLREEALRRAEAEAFRYALELLAEKFPEQKEYLLDLAEEIESQIRSLSGVDVEDVRKFLDKEWAWVKELLAEHPAELAEVEAARAARLAELRAEVEAKVAA , reported apparent Kd (screen): 2.25

Where do these numbers come from? They come from paper PMC12416549.
